# key: entry, value: protein stability index
B1: BTBD1 (parent)
chain: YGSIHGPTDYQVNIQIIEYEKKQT

variants of: B1; assay: protein stability index of a GFP-peptide fusion (GPS, HEK-293T) (PSI 1-6); higher = more stable; settings: c terminus: a fixed tail appended;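 also: lentivirally expressed fusions sorted by FACS into six bins by GFP to DsRed ratio, PSI derived from sequencing read proportions per bin multiplied by bin number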
Note: the reply should be a number with no unit written.

Examples from the recorded data:
H5R | 2.98
N13E | 2.79
Y10N | 4.48

Record G6C , field protein stability index: 2.81

Looking up G6V , I see its protein stability index listed as 2.21
